# System: MSCL-1 mesenchymal stem cell-like cell line
# test_summary: PrestoBlue cytotoxicity test, non-malignant MSCL-1
# Format: cell-based, human
# run_conditions: Homo sapiens; 72 h treatment, PrestoBlue
quantity_kind: IC50 (µM)

{"molecule": "CC(C)c1cccc(C(C)C)c1N1C=[N+](c2c(C(C)C)cccc2C(C)C)CC1 [SIPr, reference compound]", "quantity_kind": "IC50", "experimental_result": 11.7}

###

# Test system: Mes-Sa/B1 mOrange
# test_summary: Triple coculture fluorescence cytotoxicity test, ABCB1-transfected MDR line
# Format: cell-based, human
# run_conditions: triple coculture, 144 h incubation, fluorescence readout; listed as 1c*
quantity_kind: IC50 (µM)

{"compound": "CC(C)c1cccc(C(C)C)c1N1[CH]([Cu][Cl])N([C@H](C)c2ccccc2)C[C@@H]1C(C)(C)C (stereo partly shown) [Compound 1c]", "test_target": "Mes-Sa/B1 mOrange", "quantity_kind": "IC50", "experimental_result": 3.97}

###

# System: Mes-Sa mCherry uterine sarcoma cell line
# test_summary: Triple coculture fluorescence cytotoxicity test, parental line
# Assay type: cell-based, human
# run_conditions: 144 h incubation, fluorescence readout
# Experimental: All synthesized complexes and representatives of the respective ligands (Lb, Lc, SIPr, IPr) were tested in a triple coculture of uterine sarcoma cell lines, consisting of the parental Mes-Sa cell line, and its MDR derivatives Mes-Sa/B1 and Mes-Sa/Dx5, transfected or selected in doxorubicin to overexpress P-glycoprotein, respectively (Figure 2a–c, Table S2). […]
Please respond with true when measured IC50 is strictly beneath 5000 nM, and with false in all other cases.

{"molecule": "CC(C)c1cccc(C(C)C)c1N1[C](=[Ag][Cl])N([C@@H](C)c2ccccc2)C[C@@H]1C(C)(C)C", "qualitative_label": "true"}
{"molecule": "CC(C)c1cccc(C(C)C)c1N1[C](=[Ag][Cl])N([C@@H](C)C(C)(C)C)C[C@@H]1C(C)(C)C", "qualitative_label": "true"}
{"molecule": "CC(C)c1cccc(C(C)C)c1N1[C](=[Au][Cl])N([C@@H](C)c2cccc3ccccc23)C[C@@H]1C(C)(C)C", "qualitative_label": "false"}
{"molecule": "N.N.[Cl][Pt][Cl] [Cisplatin]", "qualitative_label": "true"}
{"molecule": "CC(C)c1cccc(C(C)C)c1N1[C](=[Ag][Cl])N([C@H](C)c2ccccc2)C[C@@H]1C(C)(C)C", "qualitative_label": "true"}
{"molecule": "CC(C)c1cccc(C(C)C)c1N1[C](=[Au][Cl])N([C@H](C)c2ccc3ccccc3c2)C[C@@H]1C(C)(C)C", "qualitative_label": "false"}
{"molecule": "C=C[CH2][Pd]([Cl])=[C]1N([C@@H](C)c2ccccc2)C[C@H](C(C)(C)C)N1c1c(C(C)C)cccc1C(C)C", "qualitative_label": "false"}

###

# Tested on: CST-2/3 cisplatin-resistant cells
# test_summary: Monoculture PrestoBlue cytotoxicity test, cisplatin-resistant CST-2/3
# Type: cell-based, mouse
# run_conditions: monoculture, 120 h exposure, PrestoBlue
pIC50: −log10 of the molar value.
Each entry gets Not met if its pIC50 stays under 6, and Met if its pIC50 is 6 or above.

{"compound": "CC(C)c1cccc(C(C)C)c1N1CCN(c2c(C(C)C)cccc2C(C)C)[C]1=[Ag+]=[C]1N(c2c(C(C)C)cccc2C(C)C)CCN1c1c(C(C)C)cccc1C(C)C.F[B-](F)(F)F [Compound 10a]", "test_target": "CST-2/3 cisplatin-resistant cells", "qualitative_label": "Met"}
{"compound": "CC(C)c1cccc(C(C)C)c1N1CCN(c2c(C(C)C)cccc2C(C)C)[C]1=[Cu][Cl] [Compound 5a]", "test_target": "CST-2/3 cisplatin-resistant cells", "qualitative_label": "Met"}
{"compound": "O=C1[O][Pt]2([NH][C@@H]3CCCC[C@H]3[NH]2)[O]C1=O [Oxaliplatin, reference compound]", "test_target": "CST-2/3 cisplatin-resistant cells", "qualitative_label": "Not met"}
{"compound": "CC(C)c1cccc(C(C)C)c1N1[CH]([Cu][Cl])N([C@@H](C)c2ccccc2)C[C@@H]1C(C)(C)C (stereo partly shown) [Compound 1b]", "test_target": "CST-2/3 cisplatin-resistant cells", "qualitative_label": "Not met"}
{"compound": "CC(C)c1cccc(C(C)C)c1N1[C](=[Au][Cl])N([C@@H](C)c2ccccc2)C[C@@H]1C(C)(C)C [Compound 3b]", "test_target": "CST-2/3 cisplatin-resistant cells", "qualitative_label": "Not met"}
{"compound": "CC(C)c1cccc(C(C)C)c1N1[C](=[Au][Cl])N([C@@H](C)c2cccc3ccccc23)C[C@@H]1C(C)(C)C [Compound 3d]", "test_target": "CST-2/3 cisplatin-resistant cells", "qualitative_label": "Not met"}
{"compound": "C=C[CH2][Pd]([Cl])=[C]1N(c2c(C(C)C)cccc2C(C)C)CCN1c1c(C(C)C)cccc1C(C)C [Compound 8a]", "test_target": "CST-2/3 cisplatin-resistant cells", "qualitative_label": "Not met"}
{"compound": "CC(C)c1cccc(C(C)C)c1N1[C](=[Ag][Cl])N([C@@H](C)c2ccccc2)C[C@@H]1C(C)(C)C [Compound 2b]", "test_target": "CST-2/3 cisplatin-resistant cells", "qualitative_label": "Not met"}
{"compound": "CC(C)c1cccc(C(C)C)c1N1CCN(c2c(C(C)C)cccc2C(C)C)[C]1=[Au][Cl] [Compound 7a]", "test_target": "CST-2/3 cisplatin-resistant cells", "qualitative_label": "Not met"}
{"compound": "CC(C)c1cccc(C(C)C)c1N1[C](=[Cu][Cl])N([C@@H](C)c2cccc3ccccc23)C[C@@H]1C(C)(C)C [Compound 1d]", "test_target": "CST-2/3 cisplatin-resistant cells", "qualitative_label": "Not met"}
{"compound": "CC(C)c1cccc(C(C)C)c1N1[C](=[Ag][Cl])N([C@H](C)c2ccc3ccccc3c2)C[C@@H]1C(C)(C)C [Compound 2e]", "test_target": "CST-2/3 cisplatin-resistant cells", "qualitative_label": "Not met"}
{"compound": "N.N.O=C([O-])C1(C(=O)[O-])CCC1.[Pt+2] [Carboplatin, reference compound]", "test_target": "CST-2/3 cisplatin-resistant cells", "qualitative_label": "Not met"}
{"compound": "CC(C)c1cccc(C(C)C)c1N1CCN(c2c(C(C)C)cccc2C(C)C)[C]1=[Cu+]=[C]1N(c2c(C(C)C)cccc2C(C)C)CCN1c1c(C(C)C)cccc1C(C)C.F[B-](F)(F)F [Compound 9a]", "test_target": "CST-2/3 cisplatin-resistant cells", "qualitative_label": "Met"}

###

# MSCL-1 / Mes-Sa ratio (IC50_MSCL-1/IC50_cancer line) listing for each entry below
# Tested on: MSCL-1 mesenchymal stem cell-like cell line
# test_summary: PrestoBlue cytotoxicity test, non-malignant MSCL-1
# Assay type: cell-based, human
# run_conditions: MSCL-1 vs Mes-Sa
quantity_kind: MSCL-1 / Mes-Sa ratio (IC50_MSCL-1/IC50_cancer line)

{"molecule": "CC(C)c1cccc(C(C)C)c1N1CCN(c2c(C(C)C)cccc2C(C)C)[C]1=[Ag+]=[C]1N(c2c(C(C)C)cccc2C(C)C)CCN1c1c(C(C)C)cccc1C(C)C.F[B-](F)(F)F [Compound 10a]", "experimental_result": 15.7}
{"molecule": "CC(C)c1cccc(C(C)C)c1N1CCN(c2c(C(C)C)cccc2C(C)C)[C]1=[Cu+]=[C]1N(c2c(C(C)C)cccc2C(C)C)CCN1c1c(C(C)C)cccc1C(C)C.F[B-](F)(F)F", "experimental_result": 11.2}
{"molecule": "CC(C)c1cccc(C(C)C)c1N1CCN(c2c(C(C)C)cccc2C(C)C)[C]1=[Cu][Cl]", "experimental_result": 2.7}
{"molecule": "C=C[CH2][Pd]([Cl])=[C]1N(c2c(C(C)C)cccc2C(C)C)CCN1c1c(C(C)C)cccc1C(C)C", "experimental_result": 1.1}
{"molecule": "CC(C)c1cccc(C(C)C)c1N1CCN(c2c(C(C)C)cccc2C(C)C)[C]1=[Ag][Cl]", "experimental_result": 2.0}
{"molecule": "CC(C)c1cccc(C(C)C)c1N1C=[N+](c2c(C(C)C)cccc2C(C)C)CC1 [SIPr, reference compound]", "experimental_result": 2.3}
{"molecule": "N.N.[Cl][Pt][Cl] [Cisplatin]", "experimental_result": 6.8}
{"molecule": "CC(C)c1cccc(C(C)C)c1N1CCN(c2c(C(C)C)cccc2C(C)C)[C]1=[Au][Cl]", "experimental_result": 3.0}

###

This section presents molecules with their documented log10 of IC50 values.
# System: Mes-Sa mCherry uterine sarcoma cell line
# test_summary: Triple coculture fluorescence cytotoxicity test, parental line
# Assay type: cell-based, human
# run_conditions: 144 h incubation, fluorescence readout
quantity_kind: log10 of IC50 (log10 of the value in µM)

{"molecule": "CC(C)c1cccc(C(C)C)c1N1CCN(c2c(C(C)C)cccc2C(C)C)[C]1=[Ag+]=[C]1N(c2c(C(C)C)cccc2C(C)C)CCN1c1c(C(C)C)cccc1C(C)C.F[B-](F)(F)F [Compound 10a]", "log10 of IC50": -1.44}
{"molecule": "CC(C)c1cccc(C(C)C)c1-n1ccn(-c2c(C(C)C)cccc2C(C)C)[c]1=[Cu][Cl] [Compound 5b]", "log10 of IC50": 0.00}
{"molecule": "CC(C)c1cccc(C(C)C)c1-n1ccn(-c2c(C(C)C)cccc2C(C)C)[c]1=[Ag][Cl] [Compound 6b]", "log10 of IC50": 0.26}
{"molecule": "CC(C)c1cccc(C(C)C)c1N1CCN(c2c(C(C)C)cccc2C(C)C)[C]1=[Cu][Cl] [Compound 5a]", "log10 of IC50": -0.38}
{"molecule": "CC(C)c1cccc(C(C)C)c1N1[C](=[Ag][Cl])N([C@@H](C)c2cccc3ccccc23)C[C@@H]1C(C)(C)C [Compound 2d]", "log10 of IC50": -0.27}
{"molecule": "CC(C)c1cccc(C(C)C)c1N1CCN(c2c(C(C)C)cccc2C(C)C)[C]1=[Au][Cl] [Compound 7a]", "log10 of IC50": 0.93}
{"molecule": "CC(C)c1cccc(C(C)C)c1-n1ccn(-c2c(C(C)C)cccc2C(C)C)[c]1=[Cu+]=[c]1n(-c2c(C(C)C)cccc2C(C)C)ccn1-c1c(C(C)C)cccc1C(C)C.F[B-](F)(F)F [Compound 9b]", "log10 of IC50": -1.24}
{"molecule": "CC(C)c1cccc(C(C)C)c1N1CCN(c2c(C(C)C)cccc2C(C)C)[C]1=[Ag][Cl] [Compound 6a]", "log10 of IC50": -0.21}
{"molecule": "CC(C)c1cccc(C(C)C)c1N1[CH]([Cu][Cl])N(Cc2ccccc2)C[C@@H]1C(C)(C)C (some centres unmarked) [Compound 1a]", "log10 of IC50": -0.28}
{"molecule": "CC(C)c1cccc(C(C)C)c1N1[CH]([Cu][Cl])N([C@@H](C)C(C)(C)C)C[C@@H]1C(C)(C)C (some centres unmarked) [Compound 1f]", "log10 of IC50": 0.48}
{"molecule": "CC(C)c1cccc(C(C)C)c1N1[CH]([Cu][Cl])N([C@@H](C)c2ccccc2)C[C@@H]1C(C)(C)C (some centres unmarked) [Compound 1b]", "log10 of IC50": 0.24}
{"molecule": "CC(C)c1cccc(C(C)C)c1N1[C](=[Au][Cl])N([C@@H](C)c2ccccc2)C[C@@H]1C(C)(C)C [Compound 3b]", "log10 of IC50": 0.79}
{"molecule": "CC(C)c1cccc(C(C)C)c1N1[CH]([Cu][Cl])N([C@H](C)c2ccccc2)C[C@@H]1C(C)(C)C (some centres unmarked) [Compound 1c]", "log10 of IC50": -0.10}
{"molecule": "CC(C)c1cccc(C(C)C)c1N1[C](=[Au][Cl])N([C@@H](C)C(C)(C)C)C[C@@H]1C(C)(C)C [Compound 3f]", "log10 of IC50": 1.06}
